experimental-system: hGIP-R (Homo sapiens)
Construct: expressed in transfected cells; host or cells: HEK-293 clonal cell lines
Sequence (P48546 22-466): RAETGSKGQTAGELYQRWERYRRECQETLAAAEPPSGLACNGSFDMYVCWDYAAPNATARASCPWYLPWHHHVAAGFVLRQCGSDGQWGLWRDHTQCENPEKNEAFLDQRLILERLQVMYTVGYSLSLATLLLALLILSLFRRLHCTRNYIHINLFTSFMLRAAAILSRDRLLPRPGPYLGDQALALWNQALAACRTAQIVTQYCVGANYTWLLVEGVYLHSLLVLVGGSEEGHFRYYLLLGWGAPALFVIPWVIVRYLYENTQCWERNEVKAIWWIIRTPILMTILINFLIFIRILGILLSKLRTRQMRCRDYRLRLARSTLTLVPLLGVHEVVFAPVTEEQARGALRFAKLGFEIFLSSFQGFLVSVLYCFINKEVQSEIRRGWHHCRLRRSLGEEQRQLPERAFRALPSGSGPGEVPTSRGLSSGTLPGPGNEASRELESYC
assay-info: Functional hGIP-R Assay (cAMP formation, HTRF)
Format: cell-based
applied-conditions: cAMP efficacy; percent of maximal response to GIP(1-42)OH; 37° C., 0.1% bovine casein; arithmetic mean ± SEM
quantity-measured: Emax (%)

Consider the reported Emax for these compounds:
>  <compound>
Cn1cc(C[C@@H](NC(=O)[C@H]2C[C@@H]2c2ccc(-c3cnc4nn(C)cc4c3)cc2)C(=O)NC(C)(C)Cn2nc(C(F)(F)F)cc2-c2ccn(C[C@H]3C[C@H](F)C3)n2)cn1

>  <recorded-number>
115

$$$$
>  <compound>
CC(C)(Cn1cc(C(F)(F)F)cn1)NC(=O)[C@@H](Cc1cnc2ncccn12)NC(=O)[C@H]1C[C@@H]1c1ccc(NC(=O)C2CC(F)(F)C2)cc1

>  <recorded-number>
66.4

$$$$
>  <compound>
Cn1cc(C[C@@H](NC(=O)[C@H]2C[C@@H]2c2ccc(-c3cnc4nn(C)cc4c3)cc2)C(=O)NC(C)(C)Cn2nc(C(F)(F)F)cc2-n2ccccc2=O)cn1

>  <recorded-number>
126

$$$$
>  <compound>
[2H]C([2H])([2H])n1cc(C[C@H](C(=O)NC(C)(C)Cn2nc(C(F)(F)F)cc2-c2ccc(C(C)(C)OP(=O)(O)O)nc2)N2CC[C@@]3(C[C@@H]3c3ccc(-c4cnc5nn(C)cc5c4)cc3Cl)C2=O)cn1

>  <recorded-number>
88.8

$$$$

(1) Cc1nc(-c2cnc3nc(C4CC4)cn3c2)ccc1[C@H]1C[C@@]12CCN([C@H](Cc1cnn(C(F)F)c1)C(=O)NC(C)(C)Cn1nc(C(F)(F)F)cc1-c1cnc(C(C)(C)O)nc1)C2=O
(2) CC(C)(Cc1ccc(F)cc1)NC(=O)[C@@H](Cc1cnc2ncccn12)NC(=O)[C@H]1C[C@@H]1c1ccc(NC(=O)C2CC(F)(F)C2)cc1
Exam item: # query: argmin of Emax over 1 and 2 Write down the label attached to your selection.
Marked response: 2
(2: 56.5%, 1: 102%)
